TGT: T1, Human TNFR2 recombinant protein (Sino 10417-H08H) (human, UniProt P20333 23-257)
T1 construct: also called hTNFR2 (His tag)
T1 sequence (looked up): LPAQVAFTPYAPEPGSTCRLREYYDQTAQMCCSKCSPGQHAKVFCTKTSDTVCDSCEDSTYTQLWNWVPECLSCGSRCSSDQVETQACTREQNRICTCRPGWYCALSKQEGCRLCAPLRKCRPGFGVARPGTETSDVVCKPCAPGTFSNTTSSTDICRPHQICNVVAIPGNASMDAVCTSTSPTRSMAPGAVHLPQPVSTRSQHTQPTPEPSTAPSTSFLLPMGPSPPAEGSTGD
EXPERIMENT_DESCRIPTION: SPR Biacore, antibody on Protein A chip, TNFR2 analyte
ASSAY_METRIC: log10(Kd) (log10 of the value in nM)
Please note: log10 values; quantity Kd; unit nM.

# example entries with known answers
# BINDER, ASSAY_METRIC, NUMERIC_RESULT
data = [
    ("TNFR2 antibody #309 (antibody, V domains shown) VH: EVQLQESGAELVKPGASVKLSCKASGYTFTSYWIHWVKLRPGQGFEWIGEINPNNGGTDYNEKFKRKATLTVDKSSSTAYMELSSLTSEDSAIYYCTIDSMITTTWFAYWGQGTTVTVSS VL: EIVMTQSQKLMSTVVGDRVSVTCKASQNVGTNVAWFQQKPGQSPKALINSASYRYSGVPDRFTGSGSGTDFTLTISSVQSEDLAEYFCQQYNSYPFTFGSGTKLEIK", "log10(Kd)", 0.16),
    ("TNFR2 antibody #001 (antibody, V domains shown, also called antibody #1) VH: EVQLQESGGGLVQPGGSLNLSCAASGFAFSTYDLSWVRQTPEKRLEWVAYINNGGISTYYSDTVKGRFTISRDNAKNTLYLQMSSLKSEDTAMYYCVRGPFYGSANYFDYWGQGTTVTVSS VL: EIVMTQSPASLSLSVGETVTITCRTSESIYSNLPWYQQKQGKSPQLLVYDATKLAEGVPSRFSGSESGTQYSLKINSLQSEDFGTYYCQHFWVTPWTFGGGTKLEIK", "log10(Kd)", -0.79),
    ("TNFR2 antibody #352 (antibody, V domains shown) VH: EVQLQESGPGLVAPSQSLSITCTVSGFSLTSYGVHWVRQPPGKGLEWLVVIWSDGGTTYNSALKSRLSISKDNSKSQVFLKMNSLQTDDTAMYYCARHDDDGYYAMDYWGQGTTVTVSS VL: DIVLTQSPSLMSASPGEKVTMTCSASSSVGYMYWYQQKPRSSPKPWIYLTSNLASGVPARFSGSGSGTSYSLTISSMEVEDAATYYCQQWSSDPFTFGSGTKLEIK", "log10(Kd)", 0.15),
    ("TNFR2 antibody #365 (antibody, V domains shown) VH: EVQLQESGPGLVQPSQSLSITCTVSGFSLTSYGVHWVRQSPGKGLEWLGLIWSDGSPDYSAAFISRLSINKDNSKSQVFFKMNSLQADDTAIYYCARNDDGGDYVMDYWGQGTTVTVSS VL: EIVLTQSPALMSASPGEKVTMTCSASSSVSYMYWYQQKPRSSPKPWIYLTSNLASGVPARFSGSGSGTSYSLTISSMEAEDAATYYCQQWTSNPLTFGAGTKLEIK", "log10(Kd)", -0.02),
]

# next binder below
Item TNFR2 antibody #088 (antibody, V domains shown) VH: EVQLQESGGGLVQPGGSLNLSCAASGFAFSTYDLSWVRQTPGKRLEWVAYINNGGISTYYSDTVKGRFTITRDNAKNTLYLQMSSLKSEDTAMYYCVRGPFYGSANYFDYWGQGTTVTVSS VL: DILMTQSPASLSLFVGETVTITCRASENIYSNLAWYQQKQGKSPQLLVYDATKLAEGVPSRFSGSESGTQYSLKINSLQSEDFGTYYCQHFWVTPWTFGGGTKLEIK has what recorded log10(Kd)? -0.97
